Origin of values: patent US9718861B2

- target-or-system: ghrelin receptor (Homo sapiens, UniProt Q92847)
- Sequence (Q92847 whole entry): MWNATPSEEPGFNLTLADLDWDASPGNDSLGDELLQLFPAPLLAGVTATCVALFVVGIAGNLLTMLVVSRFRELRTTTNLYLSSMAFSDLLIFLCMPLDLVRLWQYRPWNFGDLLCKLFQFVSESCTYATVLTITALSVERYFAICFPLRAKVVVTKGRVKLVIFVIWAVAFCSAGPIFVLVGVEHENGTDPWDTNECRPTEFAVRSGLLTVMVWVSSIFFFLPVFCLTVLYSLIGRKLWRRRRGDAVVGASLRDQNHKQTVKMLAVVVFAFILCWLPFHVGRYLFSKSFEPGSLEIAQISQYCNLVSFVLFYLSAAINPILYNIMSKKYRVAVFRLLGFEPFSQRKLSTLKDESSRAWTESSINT
- assay: Inositol trisphosphate turnover assay in COS-7 cells transfected with the ghrelin receptor
- Assay type: cell-based
- Set-up: expressed in transfected cells
- assay-setup: shift in efficacy compared to KwFwLL-NH2; inverse agonistic activity
readout-name: x-fold (Emax) (x-fold)
Numeric answer only, unit x-fold assumed.

[[record]]
molecule = "CC(C)C[C@H](NC(=O)[C@H](CC(C)C)NC(=O)[C@@H](Cc1c[nH]c2ccccc12)NC(=O)[C@H](Cc1ccccc1)NC(=O)[C@@H](Cc1ccc(-c2ccccc2)cc1)NC(=O)[C@@H](N)CCCCN)C(N)=O [Peptide 8, K-(D-Bip)-FwLL-NH2]"
unit = "x-fold"
reported_measurement = 2.2


Now consider a different molecule.
Which value of x-fold (Emax) has been reported for CC(C)C[C@H](NC(=O)[C@H](CC(C)C)NC(=O)[C@@H](Cc1c[nH]c2ccccc12)NC(=O)[C@H](Cc1ccccc1)NC(=O)[C@@H](Cc1ccc(C(=O)c2ccccc2)cc1)NC(=O)[C@@H](N)CCCCN)C(N)=O [Peptide 7, K-(D-Bpa)-FwLL-NH2] in the records?
1.8
